These measurements were taken from patent US20240018146A1.

- System: HeLa MKYP cells
- testDescription: Cell death measured by DAPI staining, with 1 μM FCCP/oligomycin or no toxin (no FO)
- Type: cell-based
- assayContext: 25 μM compound, no FO
- Description: EP-0035985, EP-0037821, EP-0038098, and EP-0038099 in the presence of 1 μM FCCP/oligomycin or with no toxin (no FO) for 6 hrs. H2O2 treatment was performed as a control for cell death as measured by DAPI staining. EP-0035985, EP-0038461, EP-0038463, and EP-0038503 in the presence of 1 μM FCCP/oligomycin or with no toxin (no FO) for 6.5 hrs. H2O2 treatment was performed as a control for cell death as measured by DAPI staining. […]
observedProperty: E104 death at 25 μM (no FO)

compound="FC(F)(F)c1cc2c(NC3CCCc4ccccc43)ncnc2[nH]1 (single isomer, unassigned) [EP-0035985]" observedproperty="E104 death at 25 μM (no FO)" readoutvalue=3.01
compound="FC(F)(F)c1cc2c(N[C@H]3c4ccccc4CC[C@@H]3N3CCOCC3)ncnc2[nH]1 (single isomer, unassigned) [EP-0038098]" observedproperty="E104 death at 25 μM (no FO)" readoutvalue=5.29
compound="FC(F)(F)c1cc2c(N[C@@H]3c4ccccc4CC[C@H]3N3CCOCC3)ncnc2[nH]1 (racemic) [EP-0037821]" observedproperty="E104 death at 25 μM (no FO)" readoutvalue=25.17
compound="FC(F)(F)c1cc2c(N[C@H]3c4ccccc4CC[C@@H]3N3CC4(CCOCC4)C3)ncnc2[nH]1 (single isomer, unassigned) [EP-0038463]" observedproperty="E104 death at 25 μM (no FO)" readoutvalue=59.77
compound="Fc1ccc2c(c1)CC[C@@H](N1CCOCC1)[C@@H]2Nc1ncnc2[nH]c(C(F)(F)F)cc12 (single isomer, unassigned) [EP-0038504]" observedproperty="E104 death at 25 μM (no FO)" readoutvalue=3.10
compound="FC(F)(F)c1cc2c(N[C@@H]3c4ccccc4CC[C@H]3N3CCOCC3)ncnc2[nH]1 (single isomer, unassigned) [EP-0038099]" observedproperty="E104 death at 25 μM (no FO)" readoutvalue=4.11

----------
Item-by-item account of Max % death with 1 μM FO
- System: HeLa MKYP cells
- testDescription: Cell death measured by DAPI staining, with 1 μM FCCP/oligomycin or no toxin (no FO)
- Assay type: cell-based
- assayContext: with 1 μM FO
observedProperty: Max % death with 1 μM FO (%)

compound="c1ccc2c(c1)CC[C@H](N1CCOCC1)[C@H]2Nc1ncnc2[nH]c(C3CC3)cc12 (racemic) [EP-0039677]" observedproperty="Max % death with 1 μM FO" readoutvalue=10.2
compound=Fc1ccc2c(c1)CC[C@H](N1C[C@H]3COC[C@@H]3C1)[C@H]2Nc1ncnc2[nH]c(C(F)(F)F)cc12 observedproperty="Max % death with 1 μM FO" readoutvalue=20.7
compound="OC[C@@H]1CN([C@H]2COc3ccccc3[C@@H]2Nc2ncnc3[nH]c(C(F)(F)F)cc23)CCO1 (single isomer, unassigned) [EP-0041586]" observedproperty="Max % death with 1 μM FO" readoutvalue=10.7
compound="Fc1cccc2c1CC[C@H](N1C[C@H]3COC[C@H]3C1)[C@H]2Nc1ncnc2[nH]c(C(F)(F)F)cc12 (single isomer, unassigned)" observedproperty="Max % death with 1 μM FO" readoutvalue=14.3
compound="FC(F)(F)c1cc2c(N[C@@H]3c4ccccc4OC[C@H]3C3CCOCC3)ncnc2[nH]1 (single isomer, unassigned)" observedproperty="Max % death with 1 μM FO" readoutvalue=14.1
compound="FC(F)(F)c1cc2c(N[C@H]3c4ccccc4CC[C@@H]3N3C[C@H]4COC[C@H]4C3)ncnc2[nH]1 (single isomer, unassigned) [EP-0038582]" observedproperty="Max % death with 1 μM FO" readoutvalue=4.3

----------
- testDescription: Mitotoxicity / Mitotox safety margin (therapeutic window)
- Format: cell-based
- assayContext: mitotox or cytotox
Tag: Condition met if measured Highest safe dose (μM) (mitotox or cytotox) is not below 3 µM, Condition not met if it is.

compound="c1ccc2c(c1)OC[C@H](N1CCOCC1)[C@H]2Nc1ncnc2[nH]c(C3CC3)cc12 (single isomer, unassigned) [EP-0040180]" class="Condition met"
compound="c1ccc2c(c1)OC[C@H](C1CCOCC1)[C@H]2Nc1ncnc2[nH]c(C3CC3)cc12 (single isomer, unassigned)" class="Condition met"
compound="CN(c1ncnc2[nH]c(C3CC3)cc12)C1c2ccccc2CCC1N1C[C@H]2COC[C@H]2C1 (stereo partly drawn)" class="Condition met"
compound="Fc1ccc2c(c1)CC[C@H](N1CCOCC1)[C@H]2Nc1ncnc2[nH]c(C3CC3)cc12 (single isomer, unassigned) [EP-0039746]" class="Condition not met"
compound="C[C@@H]1CN([C@H]2COc3ccccc3[C@@H]2Nc2ncnc3[nH]c(C4CC4)cc23)C[C@H](C)O1 (single isomer, unassigned) [EP-0040750]" class="Condition not met"
compound="Fc1cccc2c1CC[C@@H](N1C[C@H]3COC[C@H]3C1)[C@@H]2Nc1ncnc2[nH]c(C(F)(F)F)cc12 (single isomer, unassigned)" class="Condition not met"
compound="C[C@@H]1CN([C@H]2CCc3ccccc3[C@@H]2Nc2ncnc3[nH]c(C4CC4)cc23)CCO1 (single isomer, unassigned)" class="Condition not met"
compound="Fc1ccc2c(c1)CC[C@H](N1CCOCC1)[C@H]2Nc1ncnc2[nH]c(C(F)(F)F)cc12 (single isomer, unassigned)" class="Condition met"
compound="C[C@@H]1CN([C@H]2COc3cc(F)ccc3[C@@H]2Nc2ncnc3[nH]c(C(F)(F)F)cc23)C[C@H](C)O1 (single isomer, unassigned) [EP-0040773]" class="Condition met"
compound="FC(F)(F)c1cc2c(N[C@@H]3c4ccccc4OC[C@@H]3C3CCCOC3)ncnc2[nH]1 (single isomer, unassigned)" class="Condition met"
compound=FC(F)(F)c1cc2c(N[C@H]3c4ccccc4OC[C@@H]3N3C[C@H]4COC[C@H]4C3)ncnc2[nH]1 class="Condition met"
compound="c1ccc2c(c1)CC[C@H](N1CCOCC1)[C@H]2Nc1ncnc2[nH]c(C3CC3)cc12 (racemic) [EP-0039677]" class="Condition not met"

----------
Item-by-item account of Highest safe dose (μM) (mitotox or cytotox)
- testDescription: Mitotoxicity / Mitotox safety margin (therapeutic window)
- Assay type: cell-based
- assayContext: mitotox or cytotox
observedProperty: Highest safe dose (μM) (mitotox or cytotox) (µM)

molecule="c1ccc2c(c1)OC[C@H](N1CCOCC1)[C@H]2Nc1ncnc2[nH]c(C3CC3)cc12 [EP-0040080]" readoutvalue=25.0
molecule=C[C@H]1CN([C@@H]2COc3cc(F)ccc3[C@H]2Nc2ncnc3[nH]c(C4CC4)cc23)CCO1 readoutvalue=7.4
molecule=c1ccc2c(c1)CC[C@H](N1C[C@H]3COC[C@H]3C1)[C@H]2Nc1ncnc2[nH]c(C3CC3)cc12 readoutvalue=0.9
molecule=COC1CN([C@@H]2COc3ccccc3[C@H]2Nc2ncnc3[nH]c(C4CC4)cc23)C1 readoutvalue=25.0
molecule="Fc1ccc2c(c1)CC[C@H](N1CCOCC1)[C@H]2Nc1ncnc2[nH]c(C3CC3)cc12 (single isomer, unassigned) [EP-0038521]" readoutvalue=8.3
molecule="[2H]C([2H])([2H])OC1CN([C@H]2COc3ccccc3[C@@H]2Nc2ncnc3[nH]c(C(F)(F)F)cc23)C1 (single isomer, unassigned)" readoutvalue=19.8
molecule=CO[C@H]1CCN([C@H]2COc3ccccc3[C@@H]2Nc2ncnc3[nH]c(C4CC4)cc23)C1 readoutvalue=1.1
molecule="COC1CN([C@H]2CCc3ccccc3[C@@H]2Nc2ncnc3[nH]c(C(F)(F)F)cc23)C1 [EP-0040857]" readoutvalue=18.7
molecule="Fc1ccc2c(c1)CC[C@@H](N1CCOCC1)[C@@H]2Nc1ncnc2[nH]c(C(F)(F)F)cc12 (single isomer, unassigned)" readoutvalue=25.0
molecule="c1ccc2c(c1)OC[C@@H](N1C[C@H]3COC[C@H]3C1)[C@@H]2Nc1ncnc2[nH]c(C3CC3)cc12 (single isomer, unassigned)" readoutvalue=16.6
molecule=COC1CN([C@@H]2COc3ccccc3[C@H]2Nc2ncnc3[nH]c(C(F)(F)F)cc23)C1 readoutvalue=21.4
molecule="Fc1ccc2c(c1)OC[C@H](N1C[C@H]3COC[C@@H]3C1)[C@H]2Nc1ncnc2[nH]c(C(F)(F)F)cc12 (single isomer, unassigned)" readoutvalue=9.9
molecule=c1ccc2c(c1)CC[C@H](N1C[C@@H]3COC[C@H]3C1)[C@H]2Nc1ncnc2[nH]c(C3CC3)cc12 readoutvalue=3.0

----------
- testDescription: Kinetic solubility
- Assay type: physicochemical
- assayContext: kinetic from dmso stock
observedProperty: solubility kinetic

compound="FC(F)(F)c1cc2c(N[C@H]3c4ccccc4CC[C@@H]3N3C[C@H]4COC[C@H]4C3)ncnc2[nH]1 (single isomer, unassigned)" readoutvalue="1.56 µM"
